Please go through the items and note down their protein stability index.
B1: DYRK1B (parent)
chain: YQGPGTRRLQEVLGVQTGGPGGRR

variants of: B1; assay: protein stability index of a GFP-peptide fusion (GPS, HEK-293T) (PSI 1-6); higher = more stable; conditions: c terminus: a fixed tail appended;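 note: lentivirally expressed fusions sorted by FACS into six bins by GFP to DsRed ratio, PSI derived from sequencing read proportions per bin multiplied by bin number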
Please give only the number in your answer, with no unit.

Exercise: Fill in the blank: the reported protein stability index of YQGPGTRRLQEVLQVQTGGPGGRR [G14Q] is ____.
Solution: 3.72

Exercise: Fill in the blank: the reported protein stability index of YQGPGTRRLQEVLGVQTKGPGGRR [G18K] is ____.
Solution: 2.6

Exercise: Fill in the blank: the reported protein stability index of YQGPGHRRLQEVLGVQTGGPGGRR [T6H] is ____.
Solution: 2.67

Exercise: Fill in the blank: the reported protein stability index of RQGPGTRRLQEVLGVQTGGPGGRR [Y1R] is ____.
Solution: 4.22

Exercise: Fill in the blank: the reported protein stability index of YQGPGTRRLQEVLGVQNGGPGGRR [T17N] is ____.
Solution: 3.83

Exercise: Fill in the blank: the reported protein stability index of YQGPGTRRLQEVLEVQTGGPGGRR [G14E] is ____.
Solution: 3.73

Exercise: Fill in the blank: the reported protein stability index of YQGPGTRRLQEVLGVQTGGPGGCR [R23C] is ____.
Solution: 2.87

Exercise: Fill in the blank: the reported protein stability index of YQGPGTRRLQEVLGVQTGGPGGRL [R24L] is ____.
Solution: 2.87

Exercise: Fill in the blank: the reported protein stability index of YQGPGTRRLQEVKGVQTGGPGGRR [L13K] is ____.
Solution: 3.79

Exercise: Fill in the blank: the reported protein stability index of YQGPGTRRLYEVLGVQTGGPGGRR [Q10Y] is ____.
Solution: 2.25

Exercise: Fill in the blank: the reported protein stability index of YQGPGTRRAQEVLGVQTGGPGGRR [L9A] is ____.
Solution: 4.03

Where do these numbers come from? They come from the supplement of paper PMC10567573.
